Values were extracted from patent US7700272B2.

target-of-assay: ACC-1G6.4 channel (Caenorhabditis elegans)
Construct: Agonist: percentage of maximal acetylcholine-elicited response; other: compound at 0.1 mM; Agonist: percentage of maximal acetylcholine-elicited response; other: compound at 0.2 mM; other: compound at 0.4 mM; other: compound at 0.8 mM; Agonist: percentage of maxim
assay-remarks: Two-electrode voltage-clamp of Xenopus oocytes expressing ACC-1G6.4 homomeric channel
Assay type: cell-based, C. elegans
recorded-conditions: oocytes clamped at −80 mV; read-out: EC50 (agonist)
pEC50: −log10 of the molar value.
quantity-measured: pEC50

# substance-smiles, recorded-value
records = [
    ("COC(=O)C1=CCCN(C)C1", 5.33),
]

----------
target-of-assay: UniProt Q18812
assay-remarks: cell-based
quantity-measured: Agonist: percentage of maximal acetylcholine-elicited response

# compound, recorded-value
measured = [
    ("O=C1C[C@@H]2OCC=C3CN4CC[C@]56c7ccccc7N1[C@H]5[C@H]2[C@H]3C[C@H]46 [strychnine]", "0%"),
    ("C[N+](C)(C)CCCCCC[N+](C)(C)C [C6, hexamethonium]", "0%"),
    ("O=c1cccc2n1C[C@@H]1CNC[C@H]2C1 [cytisine]", "15.5 ± 2.9%"),
    ("CO[C@H]1CC=C2CCN3CCC4=C(CC(=O)OC4)[C@]23C1 [dβe, dihydro-β-erythroidine]", "0%"),
]

----------
target-of-assay: ACC-1G6.4 channel (Caenorhabditis elegans, UniProt Q21005)
Construct: Agonist: percentage of maximal acetylcholine-elicited response; other: compound at 0.1 mM; Agonist: percentage of maximal acetylcholine-elicited response; other: compound at 0.2 mM; other: compound at 0.4 mM; other: compound at 0.8 mM; Agonist: percentage of maxim
Sequence (Q21005 whole entry, looked up): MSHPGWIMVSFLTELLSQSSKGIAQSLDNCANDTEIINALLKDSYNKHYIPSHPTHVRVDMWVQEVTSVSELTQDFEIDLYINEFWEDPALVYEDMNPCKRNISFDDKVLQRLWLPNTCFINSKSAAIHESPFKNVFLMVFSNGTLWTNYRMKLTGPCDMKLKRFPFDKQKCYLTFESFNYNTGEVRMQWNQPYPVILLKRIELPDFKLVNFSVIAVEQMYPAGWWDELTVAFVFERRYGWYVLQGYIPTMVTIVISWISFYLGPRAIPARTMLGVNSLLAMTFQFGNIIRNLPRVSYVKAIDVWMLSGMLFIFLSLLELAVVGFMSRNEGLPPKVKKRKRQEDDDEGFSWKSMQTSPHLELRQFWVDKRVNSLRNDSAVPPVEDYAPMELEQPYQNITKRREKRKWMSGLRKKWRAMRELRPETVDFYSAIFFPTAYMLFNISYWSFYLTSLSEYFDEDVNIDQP
assay-remarks: Two-electrode voltage-clamp of Xenopus oocytes expressing ACC-1G6.4 homomeric channel
Type: cell-based, C. elegans
quantity-measured: Antagonist: percentage decrease in a response to acetylcholine (%)

# substance-smiles, measurement-unit, recorded-value
rows = [
    ("O=C1C[C@@H]2OCC=C3CN4CC[C@]56c7ccccc7N1[C@H]5[C@H]2[C@H]3C[C@H]46", "%", 96),
    ("O=[N+]([O-])NC1=NCCN1Cc1ccc(Cl)nc1", "%", 0),
    ("C[C@@H]1O[C@H](C[N+](C)(C)C)C[C@H]1O", "%", 51.6),
]

----------
The entries below are paired with their reported EC50.
target-of-assay: ACC-2D6.3 channel (Caenorhabditis elegans)
Sequence (Q18812 whole entry, looked up): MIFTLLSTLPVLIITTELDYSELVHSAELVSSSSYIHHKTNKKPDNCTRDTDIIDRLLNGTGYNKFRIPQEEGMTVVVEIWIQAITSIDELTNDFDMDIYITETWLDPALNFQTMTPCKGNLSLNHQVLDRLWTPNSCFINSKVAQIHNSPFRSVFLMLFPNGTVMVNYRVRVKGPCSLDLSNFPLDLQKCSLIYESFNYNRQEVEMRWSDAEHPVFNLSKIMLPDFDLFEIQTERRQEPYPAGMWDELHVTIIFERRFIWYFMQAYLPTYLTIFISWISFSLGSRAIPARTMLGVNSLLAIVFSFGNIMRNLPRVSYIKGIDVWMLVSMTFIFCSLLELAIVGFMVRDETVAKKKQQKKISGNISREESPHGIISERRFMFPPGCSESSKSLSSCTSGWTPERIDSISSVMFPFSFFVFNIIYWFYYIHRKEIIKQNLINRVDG
assay-remarks: cell-based

# molecule, EC50
records = [
    ("O=c1cccc2n1C[C@@H]1CNC[C@H]2C1 [cytisine]", "~1000 µM"),
    ("CN1CCCC1c1cccnc1 (centres unmarked) [nicotine]", "~1000 µM"),
]
